# target.of.assay: DAGLβ (Mus musculus (Mouse))
# Sequence (Q91WC9 whole entry): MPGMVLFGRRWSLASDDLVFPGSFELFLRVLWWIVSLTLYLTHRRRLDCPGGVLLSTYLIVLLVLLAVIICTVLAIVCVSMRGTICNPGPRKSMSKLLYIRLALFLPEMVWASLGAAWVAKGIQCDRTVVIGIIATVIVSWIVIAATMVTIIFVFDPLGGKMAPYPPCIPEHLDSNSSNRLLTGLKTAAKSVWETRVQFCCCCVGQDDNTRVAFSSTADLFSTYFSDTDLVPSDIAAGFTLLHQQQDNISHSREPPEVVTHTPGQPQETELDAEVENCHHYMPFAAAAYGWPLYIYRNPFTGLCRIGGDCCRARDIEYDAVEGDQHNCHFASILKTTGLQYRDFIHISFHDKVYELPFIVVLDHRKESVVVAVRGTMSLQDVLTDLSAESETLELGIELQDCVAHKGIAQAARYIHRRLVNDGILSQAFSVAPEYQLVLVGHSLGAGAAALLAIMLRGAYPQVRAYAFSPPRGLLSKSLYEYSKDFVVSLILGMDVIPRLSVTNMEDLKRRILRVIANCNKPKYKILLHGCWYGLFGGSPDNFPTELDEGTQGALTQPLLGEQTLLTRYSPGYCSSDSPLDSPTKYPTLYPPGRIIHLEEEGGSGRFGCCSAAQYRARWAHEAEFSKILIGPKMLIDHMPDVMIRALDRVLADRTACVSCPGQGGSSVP
# assay.info: gel-based ABPP of mouse brain proteome, endogenous DAGLs, probe compound 58 and HT-01
# Format: biochemical
pIC50: −log10 of the molar value.
endpoint.label: pIC50

Lookup: GET /values?readout=pIC50&item= C#CCO[C@@H]1CC[C@H](Cc2ccccc2)N(C(=O)n2ncc(C(O)(c3ccc(F)cc3)c3ccc(F)cc3)n2)C1
Found: 8.32 to 8.64

* * *

# target.of.assay: DAGLα (hDAGLα-FLAG) (Homo sapiens (Human), UniProt Q9Y4D2)
# Sequence (Q9Y4D2 whole entry): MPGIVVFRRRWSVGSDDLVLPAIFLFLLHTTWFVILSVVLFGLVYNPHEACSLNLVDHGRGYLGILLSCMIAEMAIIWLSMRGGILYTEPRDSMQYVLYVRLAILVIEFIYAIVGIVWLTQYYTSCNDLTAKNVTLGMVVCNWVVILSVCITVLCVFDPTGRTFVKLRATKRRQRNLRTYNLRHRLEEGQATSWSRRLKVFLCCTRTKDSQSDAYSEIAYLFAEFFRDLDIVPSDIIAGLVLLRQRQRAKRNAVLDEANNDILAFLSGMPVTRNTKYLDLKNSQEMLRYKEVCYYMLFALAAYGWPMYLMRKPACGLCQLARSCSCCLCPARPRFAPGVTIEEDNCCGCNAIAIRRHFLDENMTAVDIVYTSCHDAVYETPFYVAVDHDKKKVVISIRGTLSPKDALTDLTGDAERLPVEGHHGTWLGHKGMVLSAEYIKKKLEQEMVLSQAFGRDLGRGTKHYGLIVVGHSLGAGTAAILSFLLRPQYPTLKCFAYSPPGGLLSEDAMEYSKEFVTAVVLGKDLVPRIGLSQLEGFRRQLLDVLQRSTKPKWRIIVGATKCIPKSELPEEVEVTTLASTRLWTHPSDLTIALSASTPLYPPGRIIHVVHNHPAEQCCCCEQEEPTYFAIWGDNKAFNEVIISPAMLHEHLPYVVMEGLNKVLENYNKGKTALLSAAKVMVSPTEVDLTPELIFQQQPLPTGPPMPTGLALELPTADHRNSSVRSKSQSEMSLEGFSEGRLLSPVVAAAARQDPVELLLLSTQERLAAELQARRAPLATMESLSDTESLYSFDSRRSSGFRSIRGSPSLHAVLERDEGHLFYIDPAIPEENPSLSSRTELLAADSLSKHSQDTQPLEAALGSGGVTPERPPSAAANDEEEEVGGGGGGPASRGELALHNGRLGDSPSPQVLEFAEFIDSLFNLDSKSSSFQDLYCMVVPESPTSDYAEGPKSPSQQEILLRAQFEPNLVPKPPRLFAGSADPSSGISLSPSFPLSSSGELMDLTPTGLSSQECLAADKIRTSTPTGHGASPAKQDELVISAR
# assay.info: competitive ABPP, membrane proteome of transfected HEK293T cells
# Format: biochemical
# experimental.conditions: 0.8 μM (stated under the cell); read-out: DAGLα % inh. 0.8 μM
endpoint.label: inhibition at 0.8 µM

[
  {
    "compound": "C#CCCCC(=O)N1CCN(C(=O)n2ncc(-c3ccc(OC(F)(F)F)cc3)n2)C(Cc2ccccc2)C1 (centres unmarked)",
    "target.of.assay": "DAGLα (hDAGLα-FLAG) (Homo sapiens (Human), UniProt Q9Y4D2)",
    "inhibition at 0.8 µM": "0 to 25%"
  },
  {
    "compound": "CC(C)C(=O)N1CCN(C(=O)n2ncc(-c3ccc(OC(F)(F)F)cc3)n2)C(Cc2ccccc2)C1 (centres unmarked)",
    "target.of.assay": "DAGLα (hDAGLα-FLAG) (Homo sapiens (Human), UniProt Q9Y4D2)",
    "inhibition at 0.8 µM": "0 to 25%"
  },
  {
    "compound": "CC(C)(C)OC(=O)N1CCN(C(=O)n2cc(-c3ccc(OC(F)(F)F)cc3)nn2)C(c2ccccc2)C1 (centres unmarked)",
    "target.of.assay": "DAGLα (hDAGLα-FLAG) (Homo sapiens (Human), UniProt Q9Y4D2)",
    "inhibition at 0.8 µM": "0 to 25%"
  }
]

Lookup: Name the reported inhibition at 0.8 µM value associated with the compound CC(C)(C)OC(=O)N1CCN(C(=O)n2ncc(-c3ccc(OC(F)(F)F)cc3)n2)C(c2ccccc2)C1 (centres unmarked)
Found: 0 to 25%

Lookup: # get_value(readout='inhibition at 0.8 µM', item= C#CCCCC(=O)N1CCN(C(=O)n2cc(-c3ccc(OC(F)(F)F)cc3)nn2)C(Cc2ccccc2)C1 (centres unmarked) )
Found: 25 to 50%

* * *

# target.of.assay: DAGLβ (hDAGLβ-FLAG) (Homo sapiens (Human))
# Sequence (Q8NCG7 whole entry): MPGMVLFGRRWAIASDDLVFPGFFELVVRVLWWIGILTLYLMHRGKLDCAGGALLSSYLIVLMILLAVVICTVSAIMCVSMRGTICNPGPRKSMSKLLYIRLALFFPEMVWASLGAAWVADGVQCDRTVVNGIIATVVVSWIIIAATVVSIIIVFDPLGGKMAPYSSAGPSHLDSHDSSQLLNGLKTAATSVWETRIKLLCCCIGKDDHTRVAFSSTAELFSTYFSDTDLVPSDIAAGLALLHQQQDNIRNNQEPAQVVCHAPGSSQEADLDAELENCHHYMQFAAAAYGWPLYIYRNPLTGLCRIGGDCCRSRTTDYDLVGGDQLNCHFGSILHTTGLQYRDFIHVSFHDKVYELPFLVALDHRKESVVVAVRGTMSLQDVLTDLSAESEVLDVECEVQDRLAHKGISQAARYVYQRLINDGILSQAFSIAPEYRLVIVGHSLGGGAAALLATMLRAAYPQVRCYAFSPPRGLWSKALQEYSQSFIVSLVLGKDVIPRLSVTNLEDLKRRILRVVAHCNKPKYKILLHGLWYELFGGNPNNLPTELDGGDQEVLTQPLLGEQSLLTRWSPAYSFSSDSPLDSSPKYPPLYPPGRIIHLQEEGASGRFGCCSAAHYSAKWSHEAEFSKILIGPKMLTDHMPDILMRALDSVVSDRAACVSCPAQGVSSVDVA
# assay.info: competitive ABPP, membrane proteome of transfected HEK293T cells
# Assay type: biochemical
# experimental.conditions: read-out: DAGLβ % inh. 3.2 nM
# maps each entry to its inhibition at 0.0032 µM

[
  {
    "compound": "O=C(N1C[C@H](OCC2CC2)CC[C@@H]1Cc1ccccc1)n1cc(-c2ccc(OC(F)(F)F)cc2)nn1",
    "inhibition at 0.0032 µM": "25 to 50%"
  },
  {
    "compound": "O=C(N1C[C@H](O)C=C[C@@H]1Cc1ccccc1)n1ncc(-c2ccc(OC(F)(F)F)cc2)n1",
    "inhibition at 0.0032 µM": "0 to 25%"
  }
]

Lookup: For DAGLβ (hDAGLβ-FLAG) (Homo sapiens (Human)), provide inhibition at 0.0032 µM of CO[C@@H]1CC[C@H](Cc2ccccc2)N(C(=O)n2cc(-c3ccc(OC(F)(F)F)cc3)nn2)C1 please.
Found: 0 to 25%

Lookup: Lab note: need inhibition at 0.0032 µM with DAGLβ (hDAGLβ-FLAG) (Homo sapiens (Human)) for entry O=C(N1CCCCC1COc1ccccc1)n1ncc(-c2ccc(OC(F)(F)F)cc2)n1 (stereo not drawn) , please look it up.
Found: 0 to 25%

Lookup: Item O=C(N1C[C@H](O)C=C[C@@H]1COCc1ccccc1)n1cc(-c2ccc(OC(F)(F)F)cc2)nn1 with DAGLβ (hDAGLβ-FLAG) (Homo sapiens (Human)) - inhibition at 0.0032 µM?
Found: 0 to 25%

Lookup: Recall the recorded inhibition at 0.0032 µM for O=C(N1C[C@@H](O)C=C[C@@H]1Cc1ccccc1)n1ncc(-c2ccc(OC(F)(F)F)cc2)n1 with DAGLβ (hDAGLβ-FLAG) (Homo sapiens (Human)) and state it.
Found: 0 to 25%

Lookup: Which measured inhibition at 0.0032 µM belongs to O=C(N1C[C@@H](OCC2CC2)CC[C@@H]1Cc1ccccc1)n1cc(-c2ccc(OC(F)(F)F)cc2)nn1 , tested on DAGLβ (hDAGLβ-FLAG) (Homo sapiens (Human))?
Found: 0 to 25%

Lookup: Form: Entry = CO[C@@H]1CC[C@H](Cc2ccccc2)N(C(=O)n2ncc(-c3ccc(OC(F)(F)F)cc3)n2)C1 | System = DAGLβ (hDAGLβ-FLAG) (Homo sapiens (Human)) | inhibition at 0.0032 µM = ____
Found: 0 to 25%

Lookup: Lab note: need inhibition at 0.0032 µM for O=C(N1CCC=C[C@H]1COCc1ccccc1)n1cc(-c2ccc(OC(F)(F)F)cc2)nn1 on DAGLβ (hDAGLβ-FLAG) (Homo sapiens (Human)), anyone have it?
Found: 0 to 25%

Lookup: Tell me reported inhibition at 0.0032 µM for O=C(N1C[C@H](O)C=C[C@@H]1COCc1ccccc1)n1ncc(-c2ccc(OC(F)(F)F)cc2)n1 , tested with DAGLβ (hDAGLβ-FLAG) (Homo sapiens (Human)).
Found: 0 to 25%

Lookup: Give the reported inhibition at 0.0032 µM for CO[C@H]1CC[C@H](Cc2ccccc2)N(C(=O)n2cc(-c3ccc(OC(F)(F)F)cc3)nn2)C1 (system: DAGLβ (hDAGLβ-FLAG) (Homo sapiens (Human))).
Found: 0 to 25%

Lookup: Query the reported inhibition at 0.0032 µM for DAGLβ (hDAGLβ-FLAG) (Homo sapiens (Human)); item: O=C(N1C[C@@H](OCC2CC2)CC[C@@H]1Cc1ccccc1)n1ncc(-c2ccc(OC(F)(F)F)cc2)n1
Found: 0 to 25%

Lookup: Give recorded inhibition at 0.0032 µM with DAGLβ (hDAGLβ-FLAG) (Homo sapiens (Human)) for the following compound: O=C(N1CCC=C[C@H]1COCc1ccccc1)n1ncc(-c2ccc(OC(F)(F)F)cc2)n1
Found: 0 to 25%

Lookup: What inhibition at 0.0032 µM appears in the records for this compound with DAGLβ (hDAGLβ-FLAG) (Homo sapiens (Human))? O=C(N1CCCC[C@H]1Cc1ccccc1)n1ncc(-c2ccc(OC(F)(F)F)cc2)n1
Found: 0 to 25%

Lookup: Report inhibition at 0.0032 µM for O=C(N1CCCCC1COc1ccccc1)n1cc(-c2ccc(OC(F)(F)F)cc2)nn1 (stereo not drawn) tested on DAGLβ (hDAGLβ-FLAG) (Homo sapiens (Human)).
Found: 0 to 25%

The values you see were collected from patent US10583137B2.
